Entry source: paper PMC3874184

target.or.test.system: spTrm10 (spTrm10_FL) (Schizosaccharomyces pombe, UniProt O14214, N209A)
Sequence (O14214 whole entry N209A): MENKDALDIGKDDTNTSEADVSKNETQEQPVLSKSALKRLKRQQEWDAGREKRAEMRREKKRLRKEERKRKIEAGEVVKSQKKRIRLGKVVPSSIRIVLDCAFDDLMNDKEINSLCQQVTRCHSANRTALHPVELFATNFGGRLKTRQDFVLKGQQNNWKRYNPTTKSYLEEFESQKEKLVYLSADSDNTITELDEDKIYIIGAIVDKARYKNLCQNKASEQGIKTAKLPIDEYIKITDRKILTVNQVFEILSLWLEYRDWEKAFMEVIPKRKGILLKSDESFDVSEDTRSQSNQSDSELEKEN
procedure.summary: biochemical
quantity: Kd
Your answer should be a number followed by the unit of measure.

IN: // fetch spTrm10 (spTrm10_FL) (Schizosaccharomyces pombe, UniProt O14214, N209A) Kd for C[S+](CC[C@H](N)C(=O)O)C[C@H]1O[C@@H](n2cnc3c(N)ncnc32)[C@H](O)[C@@H]1O (stereo partly shown)
OUT: 83.3 µM
